target: Sodium-dependent noradrenaline transporter (Homo sapiens, UniProt P23975); assay: DRUGMATRIX: Norepinephrine Transporter radioligand binding (ligand: [125I] RTI-55); assay type: cell membranes, MDCK, Membrane; conditions: mdck; Not Active = under 50% inhibition at 10 µM
Sequence (P23975 whole entry): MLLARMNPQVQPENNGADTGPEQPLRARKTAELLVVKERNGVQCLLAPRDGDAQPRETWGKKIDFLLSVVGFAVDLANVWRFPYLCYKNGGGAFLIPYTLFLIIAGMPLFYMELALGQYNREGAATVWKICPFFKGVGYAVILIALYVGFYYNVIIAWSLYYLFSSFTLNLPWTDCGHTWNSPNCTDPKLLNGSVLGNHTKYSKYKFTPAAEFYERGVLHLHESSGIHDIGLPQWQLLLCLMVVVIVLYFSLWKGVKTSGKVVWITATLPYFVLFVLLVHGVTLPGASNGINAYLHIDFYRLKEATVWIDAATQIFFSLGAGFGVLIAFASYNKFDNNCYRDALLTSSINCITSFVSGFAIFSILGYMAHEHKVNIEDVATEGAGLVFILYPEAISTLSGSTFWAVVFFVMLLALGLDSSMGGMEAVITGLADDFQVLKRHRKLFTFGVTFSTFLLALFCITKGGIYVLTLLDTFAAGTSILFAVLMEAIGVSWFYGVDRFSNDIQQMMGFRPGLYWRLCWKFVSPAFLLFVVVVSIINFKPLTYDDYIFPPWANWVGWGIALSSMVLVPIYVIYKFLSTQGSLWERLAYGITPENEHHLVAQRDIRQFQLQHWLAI
Where a SMILES comes first, the peptide text is derived from it. Bridges are numbered along the chain shown (N, C = ends). [ ]: non-standard residue; d: D form. The star is where a group is joined. Ileψ(thiazoline)Cys = CC[C@H](C)[C@H](N)C1=N[C@H](C(=O)*)CS1; dOrn = NCCC[C@@H](N)C(=O)O
parameter: IC50

The following molecules have reported results that may help.
CC1(C)[C@H]2CC[C@]1(C)C(=O)C2 [(-)-CAMPHOR]; Not Active
NCCCC[C@H](N[C@@H](CCc1ccccc1)C(=O)O)C(=O)N1CCC[C@H]1C(=O)O [LISINOPRIL ANHYDROUS]; Not Active
C[C@]12Cc3c[nH]nc3C[C@@H]1CC[C@@H]1[C@@H]2CC[C@@]2(C)[C@H]1CC[C@]2(C)O; Not Active
CCc1ccc(C(=O)C(C)CN2CCCCC2)cc1 (configuration not stated); Not Active
CCC[C@@H]1C[C@@H](C(=O)N[C@@H]([C@H]2O[C@H](SC)[C@H](O)[C@@H](O)[C@H]2O)[C@@H](C)O)N(C)C1; Not Active

Query IC50 for O=C1OCCN1/N=C/c1ccc([N+](=O)[O-])o1
Not Active

Query IC50 for CCOC(=O)c1ccc(N)cc1
Not Active

Query IC50 for COc1ccc2cc(CC(=O)O)ccc2c1
Not Active

Query IC50 for COc1cc(C(=O)NC2CCCNC2)cc(OC)c1OC (configuration not stated) [TROXIPIDE]
Not Active

Query IC50 for CC(=O)S[C@@H]1CC2=CC(=O)CC[C@]2(C)[C@H]2CC[C@@]3(C)[C@@H](CC[C@@]34CCC(=O)O4)[C@H]12
Not Active

Query IC50 for CN[C@H](CC(C)C)C(=O)N[C@H]1C(=O)N[C@@H](CC(N)=O)C(=O)N[C@H]2C(=O)N[C@H]3C(=O)N[C@H](C(=O)N[C@H](C(=O)O)c4cc(O)cc(O)c4-c4cc3ccc4O)[C@H](O)c3ccc(c(Cl)c3)Oc3cc2cc(c3O[C@@H]2O[C@H](CO)[C@@H](O)[C@H](O)[C@H]2O[C@H]2C[C@](C)(N)[C@H](O)[C@H](C)O2)Oc2ccc(cc2Cl)[C@H]1O
Not Active

Query IC50 for COC1=CC(=O)C[C@@H](C)[C@]12Oc1c(Cl)c(OC)cc(OC)c1C2=O
Not Active

Query IC50 for CO[C@@H]1[C@@H](O[C@@H]2O[C@H](C)[C@@H](O[C@H]3C[C@@](C)(O)[C@@H](OC(=O)CC(C)C)[C@H](C)O3)[C@H](N(C)C)[C@H]2O)[C@@H](CC=O)C[C@@H](C)[C@@H](O)/C=C/C=C/C[C@@H](C)OC(=O)C[C@H]1O
Not Active

Query IC50 for O=[N+]([O-])c1cc([As](=O)(O)O)ccc1O
Not Active

Query IC50 for CCOC(=O)OC(C)OC1=C(C(=O)Nc2ccccn2)N(C)S(=O)(=O)c2ccccc21 (configuration not stated)
Not Active

Query IC50 for C[C@](N)(Cc1ccc(O)cc1)C(=O)O
Not Active

Query IC50 for CC[C@H](C)[C@H](N)C1=N[C@H](C(=O)N[C@@H](CC(C)C)C(=O)N[C@H](CCC(=O)O)C(=O)N[C@H](C(=O)N[C@H]2CCCCNC(=O)[C@H](CC(N)=O)NC(=O)[C@@H](CC(=O)O)NC(=O)[C@H](Cc3cnc[nH]3)NC(=O)[C@@H](Cc3ccccc3)NC(=O)[C@H]([C@@H](C)CC)NC(=O)[C@@H](CCCN)NC2=O)[C@@H](C)CC)CS1 [BACITRACIN] ({Ileψ(thiazoline)Cys}-L[dE]IK[dOrn]I[dF]H[dD]N; lactam 4-C)
Not Active

Query IC50 for Cc1c(-c2ccccc2)oc2c(C(=O)OCCN3CCCCC3)cccc2c1=O [FLAVOXATE]
Not Active
